assay.setup: in acetone, 298.15 K
measurement.label: solubility (mole fraction)

structure_smiles=Cc1nc(C)c(C)nc1C result=0.132

====

assay.setup: in ethyl acetate, 273.15 K
measurement.label: solubility (mole fraction)

structure_smiles=Cc1nc(C)c(C)nc1C measured_number=0.0958

====

assay.setup: in methyl acetate, 288.15 K
measurement.label: solubility (mole fraction)

structure_smiles=Cc1nc(C)c(C)nc1C measurement_label="solubility (mole fraction)" measured_number=0.133

====

assay.setup: in n-butanol, 273.15 K
measurement.label: solubility (mole fraction)

structure_smiles=Cc1nc(C)c(C)nc1C measurement_label="solubility (mole fraction)" result=0.106

====

assay.setup: in n-propanol, 293.15 K
measurement.label: solubility (mole fraction)

structure_smiles=Cc1nc(C)c(C)nc1C measurement_label="solubility (mole fraction)" measured_number=0.185

====

assay.setup: in ethyl acetate, 278.15 K
measurement.label: solubility (mole fraction)

structure_smiles=Cc1nc(C)c(C)nc1C result=0.113

====

assay.setup: in ethanol, 298.15 K
measurement.label: solubility (mole fraction)

structure_smiles=Cc1nc(C)c(C)nc1C measurement_label="solubility (mole fraction)" measured_number=0.162

====

assay.setup: in ethyl acetate, 293.15 K
measurement.label: solubility (mole fraction)

structure_smiles=Cc1nc(C)c(C)nc1C measured_number=0.181

====

assay.setup: in ethyl acetate, 288.15 K
measurement.label: solubility (mole fraction)

structure_smiles=Cc1nc(C)c(C)nc1C measurement_label="solubility (mole fraction)" measured_number=0.16

====

assay.setup: in ethanol, 278.15 K
measurement.label: solubility (mole fraction)

structure_smiles=Cc1nc(C)c(C)nc1C measured_number=0.0775

====

assay.setup: in methyl acetate, 308.15 K
measurement.label: solubility (mole fraction)

structure_smiles=Cc1nc(C)c(C)nc1C measurement_label="solubility (mole fraction)" measured_number=0.254

====

assay.setup: in n-butanol, 313.15 K
measurement.label: solubility (mole fraction)

structure_smiles=Cc1nc(C)c(C)nc1C measured_number=0.351

====

assay.setup: in acetonitrile, 273.15 K
measurement.label: solubility (mole fraction)

structure_smiles=Cc1nc(C)c(C)nc1C measured_number=0.0279

====

assay.setup: in methyl acetate, 278.15 K
measurement.label: solubility (mole fraction)

structure_smiles=Cc1nc(C)c(C)nc1C measured_number=0.094

====

assay.setup: in acetone, 293.15 K
measurement.label: solubility (mole fraction)

structure_smiles=Cc1nc(C)c(C)nc1C result=0.106

====

assay.setup: in methanol, 298.15 K
measurement.label: solubility (mole fraction)

structure_smiles=Cc1nc(C)c(C)nc1C measured_number=0.222

====

assay.setup: in n-propanol, 308.15 K
measurement.label: solubility (mole fraction)

structure_smiles=Cc1nc(C)c(C)nc1C result=0.3

====

assay.setup: in methanol, 308.15 K
measurement.label: solubility (mole fraction)

structure_smiles=Cc1nc(C)c(C)nc1C result=0.296

====

assay.setup: in isopropanol, 303.15 K
measurement.label: solubility (mole fraction)

structure_smiles=Cc1nc(C)c(C)nc1C measured_number=0.166

====

assay.setup: in acetone, 303.15 K
measurement.label: solubility (mole fraction)

structure_smiles=Cc1nc(C)c(C)nc1C measurement_label="solubility (mole fraction)" measured_number=0.156

====

assay.setup: in acetone, 308.15 K
measurement.label: solubility (mole fraction)

structure_smiles=Cc1nc(C)c(C)nc1C measurement_label="solubility (mole fraction)" measured_number=0.185

====

assay.setup: in ethyl acetate, 298.15 K
measurement.label: solubility (mole fraction)

structure_smiles=Cc1nc(C)c(C)nc1C measured_number=0.212

====

assay.setup: in ethyl acetate, 283.15 K
measurement.label: solubility (mole fraction)

structure_smiles=Cc1nc(C)c(C)nc1C measured_number=0.136

====

assay.setup: in n-propanol, 278.15 K
measurement.label: solubility (mole fraction)

structure_smiles=Cc1nc(C)c(C)nc1C measured_number=0.114

====

assay.setup: in n-propanol, 283.15 K
measurement.label: solubility (mole fraction)

structure_smiles=Cc1nc(C)c(C)nc1C measured_number=0.138

====

assay.setup: in n-butanol, 303.15 K
measurement.label: solubility (mole fraction)

structure_smiles=Cc1nc(C)c(C)nc1C measured_number=0.262

====

assay.setup: in methyl acetate, 303.15 K
measurement.label: solubility (mole fraction)

structure_smiles=Cc1nc(C)c(C)nc1C measured_number=0.216

====

assay.setup: in isopropanol, 288.15 K
measurement.label: solubility (mole fraction)

structure_smiles=Cc1nc(C)c(C)nc1C measurement_label="solubility (mole fraction)" measured_number=0.0998

====

assay.setup: in methanol, 303.15 K
measurement.label: solubility (mole fraction)

structure_smiles=Cc1nc(C)c(C)nc1C measured_number=0.262

====

assay.setup: in n-propanol, 273.15 K
measurement.label: solubility (mole fraction)

structure_smiles=Cc1nc(C)c(C)nc1C measured_number=0.102

====

assay.setup: in ethanol, 293.15 K
measurement.label: solubility (mole fraction)

structure_smiles=Cc1nc(C)c(C)nc1C result=0.128

====

assay.setup: in n-propanol, 298.15 K
measurement.label: solubility (mole fraction)

structure_smiles=Cc1nc(C)c(C)nc1C result=0.213

====

assay.setup: in ethanol, 288.15 K
measurement.label: solubility (mole fraction)

structure_smiles=Cc1nc(C)c(C)nc1C measured_number=0.11

====

assay.setup: in n-butanol, 293.15 K
measurement.label: solubility (mole fraction)

structure_smiles=Cc1nc(C)c(C)nc1C measured_number=0.205

====

assay.setup: in methanol, 288.15 K
measurement.label: solubility (mole fraction)

structure_smiles=Cc1nc(C)c(C)nc1C result=0.162

====

assay.setup: in acetone, 273.15 K
measurement.label: solubility (mole fraction)

structure_smiles=Cc1nc(C)c(C)nc1C measurement_label="solubility (mole fraction)" measured_number=0.0459

====

assay.setup: in ethanol, 313.15 K
measurement.label: solubility (mole fraction)

structure_smiles=Cc1nc(C)c(C)nc1C measurement_label="solubility (mole fraction)" measured_number=0.255

====

assay.setup: in methanol, 273.15 K
measurement.label: solubility (mole fraction)

structure_smiles=Cc1nc(C)c(C)nc1C measurement_label="solubility (mole fraction)" measured_number=0.111

====

assay.setup: in acetonitrile, 283.15 K
measurement.label: solubility (mole fraction)

structure_smiles=Cc1nc(C)c(C)nc1C result=0.0405

====

assay.setup: in methyl acetate, 313.15 K
measurement.label: solubility (mole fraction)

structure_smiles=Cc1nc(C)c(C)nc1C measurement_label="solubility (mole fraction)" measured_number=0.291

====

assay.setup: in methyl acetate, 293.15 K
measurement.label: solubility (mole fraction)

structure_smiles=Cc1nc(C)c(C)nc1C result=0.156

====

assay.setup: in methanol, 293.15 K
measurement.label: solubility (mole fraction)

structure_smiles=Cc1nc(C)c(C)nc1C measured_number=0.194

====

assay.setup: in acetonitrile, 313.15 K
measurement.label: solubility (mole fraction)

structure_smiles=Cc1nc(C)c(C)nc1C result=0.147

====

assay.setup: in acetone, 278.15 K
measurement.label: solubility (mole fraction)

structure_smiles=Cc1nc(C)c(C)nc1C measured_number=0.0592

====

assay.setup: in methyl acetate, 298.15 K
measurement.label: solubility (mole fraction)

structure_smiles=Cc1nc(C)c(C)nc1C measured_number=0.189

====

assay.setup: in acetonitrile, 298.15 K
measurement.label: solubility (mole fraction)

structure_smiles=Cc1nc(C)c(C)nc1C measured_number=0.0743

====

assay.setup: in acetonitrile, 303.15 K
measurement.label: solubility (mole fraction)

structure_smiles=Cc1nc(C)c(C)nc1C measurement_label="solubility (mole fraction)" measured_number=0.0888

====

assay.setup: in isopropanol, 313.15 K
measurement.label: solubility (mole fraction)

structure_smiles=Cc1nc(C)c(C)nc1C measured_number=0.249

====

assay.setup: in ethanol, 283.15 K
measurement.label: solubility (mole fraction)

structure_smiles=Cc1nc(C)c(C)nc1C measurement_label="solubility (mole fraction)" result=0.0911

====

assay.setup: in ethanol, 273.15 K
measurement.label: solubility (mole fraction)

structure_smiles=Cc1nc(C)c(C)nc1C measured_number=0.0644

====

assay.setup: in n-propanol, 303.15 K
measurement.label: solubility (mole fraction)

structure_smiles=Cc1nc(C)c(C)nc1C measured_number=0.245

====

assay.setup: in isopropanol, 283.15 K
measurement.label: solubility (mole fraction)

structure_smiles=Cc1nc(C)c(C)nc1C measurement_label="solubility (mole fraction)" measured_number=0.0814

====

assay.setup: in methyl acetate, 283.15 K
measurement.label: solubility (mole fraction)

structure_smiles=Cc1nc(C)c(C)nc1C measured_number=0.112

====

assay.setup: in n-butanol, 288.15 K
measurement.label: solubility (mole fraction)

structure_smiles=Cc1nc(C)c(C)nc1C measured_number=0.175

====

assay.setup: in n-butanol, 283.15 K
measurement.label: solubility (mole fraction)

structure_smiles=Cc1nc(C)c(C)nc1C result=0.152
